Assign Kd to each entry below.
target: T1, AAV9 (adeno-associated virus serotype 9); test: SPR, AAV on CM5 chip;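 further: surface plasmon resonance with AAV amine-coupled to the chip as ligand, nanobodies injected as analyte over a concentration series, rate constants and affinity fitted from binding curves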
T1 construct: also called adeno-associated virus serotype 9
Answer format: numeric, nM implied, no suffix.

The binder listed as A4-111 (VHH) VHH: VQLQESGGGLAQPGGSLRLSCAASGSNFSINTMGWYRQRAGKQREFVATITRGGSTNYGDSVKGRFTISRDNAKTTVYLQMNSLRPEDTAVYYCHLDEVRESTWTTSNLWGQGTQVTVSS shows Kd equal to 2

A4-105 (VHH) VHH: VQLQESGGGLVQPGGSLRLSCAASGSIFSLNAMGWYRQAPGKQRELVATITSGGSTNYADSVKGRFTISRDNAKNTAYLQMNNLQPEDTAVYYCHVDEVRESIWTTSNLWGQGTQVTVSS has a reported Kd of 17

The value of Kd measured for the binder A4-107 (VHH) VHH: VQLQESGGGLVQPGGSLRLSCIASGSGFSINTVGWYRQAPAKQRELVATLTRGGSTNYADSVKGRFTISRDNPKNTVYLQMNSLRPEDTAVYYCHVDEVRQSSWTTSNIWGQGTQVTVSS turned out to be 1680

A4-101 (VHH) VHH: VQLQESGGGLVQPGGSLRLSCAASGSRFSINIMGWYRQAPGKQRELVASVTRGGTTNYADSVKGRFTISRDNPKNTIYLQMNSLRPEDTAVYYCHVDEIRESTWTTSNLWGQGTQVTVSS yielded Kd of 13.4
